Experiment: gradient 5% acetonitrile 3 min, to 50% in 2 min, to 85% in 15 min, held 3 min, 100 µL/min
Settings: column: Zorbax Extend-C18 2.1 x 50 mm; eluents: water / acetonitrile, 0.1% formic acid
With a cut-off of 800 s, any RP-LC retention time strictly below it is called TRUE; any RP-LC retention time meeting it or above is called FALSE.

These solved cases illustrate the format of a correct answer.
[
  {
    "Compound": "CCn1cnc2ccc(-c3noc(-c4ccccc4OC)n3)cc21",
    "Assigned Category": "TRUE"
  },
  {
    "Compound": "CCN1C(=O)c2c(C(=O)NCc3ccc(F)cc3)ncn2CC1(C)C(=O)NC1CCCC1 (stereo not given)",
    "Assigned Category": "TRUE"
  },
  {
    "Compound": "COc1ccc(CNC(=O)CCc2conc2-c2ccc(F)cc2)cc1",
    "Assigned Category": "FALSE"
  },
  {
    "Compound": "CNC(=O)[C@@H]1C[C@@H](O)CN1C1CCN(C(=O)CC2=CCCCC2)CC1",
    "Assigned Category": "TRUE"
  }
]

Query: Does the reported RP-LC retention time of the following compound sit strictly below 800 s? CC(CCc1ccccc1)NC(=O)Cc1nnc(-c2ccc3ncccc3c2)o1 (stereo not given)
Result: TRUE

Query: Does the reported RP-LC retention time of the following compound sit strictly below 800 s? CCC(=O)Nc1ccc(CCc2nc3ccc(C(=O)NCCCOC)cc3[nH]2)cc1
Result: TRUE

Query: Does the reported RP-LC retention time of the following compound sit strictly below 800 s? CC1CCN(S(=O)(=O)c2ccc(-c3nnc(C(=O)NC4CC4)o3)cc2)CC1
Result: FALSE

Query: Does the reported RP-LC retention time of the following compound sit strictly below 800 s? O=C(c1cnn(-c2ccccc2)n1)N1CCN(C(=O)C2CC2c2ccc(F)cc2)CC1 (stereo not given)
Result: FALSE

Query: Does the reported RP-LC retention time of the following compound sit strictly below 800 s? COc1ccc(C2CCN(S(C)(=O)=O)CC2)cc1
Result: FALSE

Query: Does the reported RP-LC retention time of the following compound sit strictly below 800 s? CCCNC(=O)C1CCN(c2ccc(SCC(=O)Nc3cc(C)ccc3C)nn2)CC1
Result: TRUE

Query: Does the reported RP-LC retention time of the following compound sit strictly below 800 s? Cc1nn(-c2ccc(Cl)cc2)c(C)c1S(=O)(=O)N1CCC(C(=O)NC2CC2)CC1
Result: FALSE

Query: Does the reported RP-LC retention time of the following compound sit strictly below 800 s? COc1ccc(NC(=O)c2cc(C)n3nc(-c4ccco4)cc3n2)c(OC)c1
Result: FALSE

Query: Does the reported RP-LC retention time of the following compound sit strictly below 800 s? Cc1nccn1Cc1noc(-c2ccccc2Cl)n1
Result: TRUE

Query: Does the reported RP-LC retention time of the following compound sit strictly below 800 s? CCN(CC)CCCNC(=O)CCc1c(-c2ccc(Br)cc2)nc2ccccn12
Result: TRUE

Query: Does the reported RP-LC retention time of the following compound sit strictly below 800 s? CCCn1cc(C(=O)Nc2ccc(S(N)(=O)=O)cc2)c(=O)c2ccc(C)nc21
Result: FALSE

Query: Does the reported RP-LC retention time of the following compound sit strictly below 800 s? Cc1ccc(N2CCCS2(=O)=O)cc1NC(=O)C1CCCC1
Result: TRUE

Query: Does the reported RP-LC retention time of the following compound sit strictly below 800 s? Cn1cccc1-c1noc(C2CCN(C(=O)C3(c4ccccc4)CC3)C2)n1 (stereo not given)
Result: FALSE
